- Tested on: 616215-338-R-J1-PDC spheroids with HUVEC/MSC, viability;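 note: spheroids exposed to agents for seven days before the viability read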
- Assay comment: Anticancer human tumor 616215-338-R-J1-PDC patient-derived colon adenocarcinoma cell line growth inhibition [PI3K]
- Test settings: second compound 1 µM; first compound 3.16 µM; hits give low values
Readout label: viability, T/C (%)
I only need the number, in %, no unit after it.

-- ask Report viability, T/C for Cn1nccc1Nc1nccc(-c2ccn(C(CO)c3ccc(Cl)c(F)c3)c(=O)c2)n1 (stereo not given) + Cc1nc(NC(=O)N2CCCC2C(N)=O)sc1-c1ccnc(C(C)(C)C(F)(F)F)c1 tested on 616215-338-R-J1-PDC spheroids with HUVEC/MSC, viability.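 Note: spheroids exposed to agents for seven days before the viability read.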
-- reply 42.1

-- ask Report viability, T/C for Cn1nccc1Nc1nccc(-c2ccn(C(CO)c3ccc(Cl)c(F)c3)c(=O)c2)n1 (stereo not given) + CC(Nc1ccc2c(c1)OCCn1cc(N3C(=O)OCC3C(F)F)nc1-2)C(N)=O tested on 616215-338-R-J1-PDC spheroids with HUVEC/MSC, viability.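 Note: spheroids exposed to agents for seven days before the viability read.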
-- reply 40.5

-- ask Report viability, T/C for Cn1ncc(Cl)c1-c1cc(C(=O)NC(CN)Cc2cccc(F)c2)sc1Cl (stereo not given) + COc1c(OCCCN2CCOCC2)ccc2c3n(c(=NC(=O)c4cnc(N)nc4)nc12)CCN3 tested on 616215-338-R-J1-PDC spheroids with HUVEC/MSC, viability.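 Note: spheroids exposed to agents for seven days before the viability read.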
-- reply 16.6

-- ask Report viability, T/C for C[C@@H](NC(=O)c1ncnc(N)c1Cl)c1ncc(C(=O)Nc2cc(C(F)(F)F)c(Cl)cn2)s1 + CC(Nc1ncnc2nc[nH]c12)c1cc2cccc(Cl)c2c(=O)n1-c1ccccc1 tested on 616215-338-R-J1-PDC spheroids with HUVEC/MSC, viability.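 Note: spheroids exposed to agents for seven days before the viability read.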
-- reply 113

-- ask Report viability, T/C for CC(Cn1ccc(-c2ccc(C#N)c(Cl)c2)n1)NC(=O)c1cc(C(C)O)[nH]n1 (stereo not given) + CC(Nc1ncnc2nc[nH]c12)c1cc2cccc(Cl)c2c(=O)n1-c1ccccc1 tested on 616215-338-R-J1-PDC spheroids with HUVEC/MSC, viability.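 Note: spheroids exposed to agents for seven days before the viability read.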
-- reply 110
